Reported melting point values follow for various compounds

# example entries with known answers
CSc1nn2cc(C3=NC(C)(C)C(C)(C)c4c(F)cccc43)cnc2c1C#N [E 20]
112 to 114 °C
CC1(C)N=C(c2cnc3c(F)cnn3c2)c2cccc(F)c2C1(C)C [E 26]
198 to 200 °C
CC1(C)Cc2c(F)cccc2C(c2cnc3ccnn3c2)=N1 [E 9]
159 to 160 °C
COc1ccc2ncc(C3=NC(C)(C)C(C)(C)c4c(F)cccc43)cn12 [E 1]
120 to 122 °C
CC1(C)Cc2c(F)cccc2C(c2cnc3nccn3c2)=N1 [E 28]
227 to 229 °C

Inquiry: I would be grateful if you could share the reported melting point for CC1(C)N=C(c2cnc3c(Br)cnn3c2)c2cccc(F)c2C1(C)C [E 14] .
Reply text: 58 to 61 °C

Inquiry: Quick check: melting point of Cc1nn2cc(C3=NC(C)(C)C(C)(C)c4c(F)cccc43)cnc2c1C#N [E 23] ?
Reply text: 176 to 178 °C

Inquiry: Please give the measured melting point for this compound: CC1(C)N=C(c2cnc3c(C#N)cnn3c2)c2cccc(F)c2C1(F)F [E 24]
Reply text: 215 to 217 °C

Inquiry: Requested read-out: melting point. Entry: CC1(C)N=C(c2cnc3c(C#N)cnn3c2)c2cccc(F)c2C1(C)C [E 16]
Reply text: 179 to 182 °C

Inquiry: Entry CC1(C)Cc2c(Cl)cccc2C(c2cnc3ccnn3c2)=N1 [E 10] : reported melting point = ?
Reply text: 105 °C

Inquiry: If you can, please state the reported melting point value of Cc1nn2cc(C3=NC(C)(C)C(C)(C)c4c(F)cccc43)cnc2c1C [E 25] .
Reply text: 136 to 139 °C

Inquiry: May I ask what melting point has been recorded for Cc1cccc2c1CC(C)(C)N=C2c1cnc2nccn2c1 [E 30] ?
Reply text: 157 to 158 °C

Inquiry: Look at this compound and give its reported melting point. CC1(C)N=C(c2cnc3nccn3c2)c2cccc(F)c2C1(C)C [E 27]
Reply text: 240 to 242 °C

Inquiry: Entry Cc1nn2cc(C3=NC(C)(C)C(C)(C)c4c(F)cccc43)cnc2c1Br [E 13] : reported melting point = ?
Reply text: 132 to 134 °C

Inquiry: // returns reported melting point for input CC1(C)N=C(c2cnc3nc(Br)cn3c2)c2cccc(F)c2C1(C)C [E 31]
Reply text: 134 to 136 °C

Inquiry: Look up melting point for this compound: CC1(C)N=C(c2cnc3c(Br)cnn3c2)c2cccc(F)c2C1=O [E 19]
Reply text: 201 to 203 °C

Inquiry: What does the data say about its melting point? Entry: CC1(C)Cc2c(F)cccc2C(c2cnc3c(Br)cnn3c2)=N1 [E 17]
Reply text: 121 to 123 °C

Inquiry: Which melting point is reported for this compound? Cc1cnn2cc(C3=NC(C)(C)C(C)(C)c4c(F)cccc43)cnc12 [E 15]
Reply text: 126 to 128 °C

Inquiry: What measured melting point goes with CC1(C)N=C(c2cnc3c(Br)cc(Br)n3c2)c2cccc(F)c2C1(C)C [E 39] ?
Reply text: 141 to 143 °C

Inquiry: Data request, read-out melting point, for CC1(C)N=C(c2cnc3ccc(Br)n3c2)c2cccc(F)c2C1(C)C [E 4]
Reply text: 166 to 167 °C

Inquiry: Bench note: what melting point did CC1(C)N=C(c2cnc3cccn3c2)c2cccc(F)c2C1(C)C [E 2] show?
Reply text: 130 to 134 °C

Inquiry: Requested field: melting point. Item: Cc1cc2ncc(C3=NC(C)(C)C(C)(C)c4c(F)cccc43)cn2n1 [E 12]
Reply text: 180 to 190 °C

Inquiry: Given the compound Cc1cnn2cc(C3=NC(C)(C)C(F)(F)c4c(F)cccc43)cnc12 [E 22] , what is its reported melting point?
Reply text: 135 to 138 °C

Inquiry: melting point lookup needed for CC1(C)N=C(c2cnc3c(Br)cnn3c2)c2cccc(F)c2C1(F)F [E 21] , thanks.
Reply text: 164 to 166 °C
